target: Abl kinase (Homo sapiens, UniProt P00519); assay: biochemical; details: Abl IC50 (nM), Abl kinase (Invitrogen, 20 ng/well), Abltide 100 μM, ATP 500 nM, 37° C. for 60 minutes, top concentration 10 uM
Sequence (P00519 whole entry): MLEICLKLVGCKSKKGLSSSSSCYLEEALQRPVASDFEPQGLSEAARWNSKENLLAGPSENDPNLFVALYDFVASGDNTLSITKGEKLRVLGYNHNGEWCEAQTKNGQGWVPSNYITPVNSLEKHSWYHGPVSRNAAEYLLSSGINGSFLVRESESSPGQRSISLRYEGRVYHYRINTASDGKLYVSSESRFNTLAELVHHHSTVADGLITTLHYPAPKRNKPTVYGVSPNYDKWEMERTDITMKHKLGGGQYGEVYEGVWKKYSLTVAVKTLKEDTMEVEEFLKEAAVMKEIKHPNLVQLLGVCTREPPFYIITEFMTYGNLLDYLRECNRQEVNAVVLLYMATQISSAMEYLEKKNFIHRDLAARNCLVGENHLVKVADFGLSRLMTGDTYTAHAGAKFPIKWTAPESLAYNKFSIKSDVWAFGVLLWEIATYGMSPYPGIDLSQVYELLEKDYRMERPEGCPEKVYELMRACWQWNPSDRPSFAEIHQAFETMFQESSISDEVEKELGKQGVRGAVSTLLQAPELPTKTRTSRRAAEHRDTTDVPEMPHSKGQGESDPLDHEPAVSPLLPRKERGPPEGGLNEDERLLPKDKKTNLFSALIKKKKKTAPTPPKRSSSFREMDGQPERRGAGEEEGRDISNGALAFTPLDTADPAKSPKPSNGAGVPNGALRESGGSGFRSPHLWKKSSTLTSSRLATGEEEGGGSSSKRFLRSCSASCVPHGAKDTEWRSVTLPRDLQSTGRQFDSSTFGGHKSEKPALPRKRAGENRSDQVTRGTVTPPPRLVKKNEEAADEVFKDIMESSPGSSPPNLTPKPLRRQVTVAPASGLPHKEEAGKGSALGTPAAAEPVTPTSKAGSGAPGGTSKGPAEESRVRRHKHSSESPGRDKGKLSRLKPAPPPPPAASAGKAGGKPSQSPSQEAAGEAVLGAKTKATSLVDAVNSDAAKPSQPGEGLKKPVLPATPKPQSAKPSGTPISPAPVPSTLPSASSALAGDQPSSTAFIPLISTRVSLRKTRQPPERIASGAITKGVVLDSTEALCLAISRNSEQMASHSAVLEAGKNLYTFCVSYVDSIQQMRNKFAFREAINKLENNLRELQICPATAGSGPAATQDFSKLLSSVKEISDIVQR
Where a name gives a salt, the structure may show the parent alone.
Simple rule here: IC50 less than 500 nM is satisfied, otherwise not satisfied.

Worked cases, answers included:
- Nc1nc2ccc(/C=C/c3cnc(Nc4ccc(S(=O)(=O)N5CCCNCC5)cc4)nc3)cc2s1: satisfied
- NS(=O)(=O)c1ccc(/C=C/c2cnc(Nc3ccc(S(=O)(=O)N4CCCNCC4)cc3)nc2)cc1: not satisfied
- Nc1nc2ccc(/C=C/c3cnc(Nc4ccc(S(=O)(=O)C5CCNCC5)cc4)nc3)cc2[nH]1: satisfied
- NS(=O)(=O)c1cccc(/C=C/c2cnc(Nc3ccc(S(=O)(=O)N4CCCNCC4)cc3)nc2)c1: not satisfied
- Nc1nc2cc(C(F)(F)F)cc(/C=C/c3cnc(Nc4ccc(S(=O)(=O)C5CCNCC5)cc4)nc3)c2[nH]1: satisfied

(Q) Hi there! Is IC50 for O=S(=O)(c1ccc(Nc2ncc(/C=C/c3ccc(C(F)F)cc3)cn2)cc1)C1CCNCC1 below 500 nM, do you know?
(A) satisfied

(Q) Hi there! Is IC50 for C[C@H](N)C(=O)N1CCC(S(=O)(=O)c2ccc(Nc3ncc(/C=C/c4cccc5[nH]ccc45)cn3)cc2)CC1 [hydrochloride] below 500 nM, do you know?
(A) satisfied

(Q) Hi there! Is IC50 for O=S(=O)(c1ccc(Nc2ncc(/C=C/c3ccc(-c4nnn[nH]4)cc3)cn2)cc1)C1CCNCC1 [hydrochloride] below 500 nM, do you know?
(A) not satisfied

(Q) Hi there! Is IC50 for O=S(=O)(c1ccc(Nc2ncc(/C=C/c3cc(F)cc4[nH]nnc34)cn2)cc1)C1CCNCC1 [trifluoroacetate] below 500 nM, do you know?
(A) satisfied

(Q) Hi there! Is IC50 for Nc1cn2cc(/C=C/c3cnc(Nc4ccc(S(=O)(=O)C5CCNCC5)cc4)nc3)ccc2n1 [trifluoroacetic acid salt] below 500 nM, do you know?
(A) satisfied

(Q) Hi there! Is IC50 for O=S(=O)(c1ccc(Nc2ncc(/C=C/c3cccc(O)c3)cn2)cc1NCCO)N1CCNCC1 [trifluoroacetic acid salt] below 500 nM, do you know?
(A) satisfied

(Q) Hi there! Is IC50 for O=C(Nc1nc2ccc(/C=C/c3cnc(Nc4ccc(S(=O)(=O)C5CCNCC5)cc4)nc3)cc2s1)c1cccc(F)c1 [Hydrochloride] below 500 nM, do you know?
(A) not satisfied

(Q) Hi there! Is IC50 for C(=C\c1cccc2[nH]ccc12)/c1cnc(Nc2ccc(OC3CCNCC3)cc2)nc1 [trifluoroacetic acid salt] below 500 nM, do you know?
(A) satisfied

(Q) Hi there! Is IC50 for Nc1nc2ccc(/C=C/c3cnc(Nc4ccc(S(=O)(=O)NC5CCCNC5)cc4)nc3)cc2s1 (stereo not shown) [Hydrochloride] below 500 nM, do you know?
(A) not satisfied

(Q) Hi there! Is IC50 for O=S(=O)(c1ccc(Nc2ncc(/C=C/c3ccc(-c4c[nH]cn4)cc3)cn2)cc1)N1CCNCC1 below 500 nM, do you know?
(A) not satisfied

(Q) Hi there! Is IC50 for O=S(=O)(c1ccc(Nc2ncc(/C=C/c3cc(C(F)(F)F)cc4[nH]nnc34)cn2)cc1)C1CCNCC1 below 500 nM, do you know?
(A) satisfied

(Q) Hi there! Is IC50 for O=S(=O)(c1ccc(Nc2ncc(/C=C/c3cccc4[nH]ccc34)cn2)cc1N1CCNCC1)N1CCNCC1 [trifluoroacetic acid salt] below 500 nM, do you know?
(A) satisfied

(Q) Hi there! Is IC50 for Nc1nc2ccc(/C=C/c3cnc(Nc4ccc(S(=O)(=O)N5CCNCC5)c(C(F)(F)F)c4)nc3)cc2s1 below 500 nM, do you know?
(A) not satisfied

(Q) Hi there! Is IC50 for CN(C)CCN(C1CCNCC1)S(=O)(=O)c1ccc(Nc2ncc(/C=C/c3ccc4nc(N)sc4c3)cn2)cc1 below 500 nM, do you know?
(A) satisfied
